System: Staphylococcus aureus
Assay explanation: Bactericidal activity against Staphylococcus aureus ATCC 29213 preincubated 16 to 20 hrs followed by subculturing and measured after over night
Type: functional
Values of MBC strictly less than 0.5 µg/mL map to y, and values of at least 0.5 µg/mL map to n.

Problem: For the compound `C=C[C@]1(C)C[C@@H](OC(=O)CSc2ccccc2NC(=O)Cn2cc(CN(CC)CC)nn2)[C@]2(C)[C@H](C)CC[C@]3(CCC(=O)[C@H]32)[C@@H](C)[C@@H]1O` , is MBC under 0.5 µg/mL? y

Problem: For the compound `C=C[C@]1(C)C[C@@H](OC(=O)CSc2ccccc2NC(=O)Cn2cc(CN3CCN(c4ccccc4C)CC3)nn2)[C@]2(C)[C@H](C)CC[C@]3(CCC(=O)[C@H]32)[C@@H](C)[C@@H]1O` , is MBC under 0.5 µg/mL? n

Problem: For the compound `C=C[C@]1(C)C[C@@H](OC(=O)CSc2ccccc2NC(=O)Cn2cc(CN3CCN(c4ccccc4O)CC3)nn2)[C@]2(C)[C@H](C)CC[C@]3(CCC(=O)[C@H]32)[C@@H](C)[C@@H]1O` , is MBC under 0.5 µg/mL? n

Problem: For the compound `C=C[C@]1(C)C[C@@H](OC(=O)CSc2ccccc2NC(=O)Cn2cc(CN(C)C)nn2)[C@]2(C)[C@H](C)CC[C@]3(CCC(=O)[C@H]32)[C@@H](C)[C@@H]1O` , is MBC under 0.5 µg/mL? y

Problem: For the compound `C=C[C@]1(C)C[C@@H](OC(=O)CSc2ccccc2NC(=O)Cn2cc(CN3CCN(c4ccc(Cl)cc4)CC3)nn2)[C@]2(C)[C@H](C)CC[C@]3(CCC(=O)[C@H]32)[C@@H](C)[C@@H]1O` , is MBC under 0.5 µg/mL? n

Problem: For the compound `C=C[C@]1(C)C[C@@H](OC(=O)CSc2ccccc2NC(=O)Cn2cc(CN3CCN(c4ccccc4F)CC3)nn2)[C@]2(C)[C@H](C)CC[C@]3(CCC(=O)[C@H]32)[C@@H](C)[C@@H]1O` , is MBC under 0.5 µg/mL? n

Problem: For the compound `C=C[C@]1(C)C[C@@H](OC(=O)CSc2ccccc2NC(=O)Cn2cc(CN3CCN(c4ccccc4OC)CC3)nn2)[C@]2(C)[C@H](C)CC[C@]3(CCC(=O)[C@H]32)[C@@H](C)[C@@H]1O` , is MBC under 0.5 µg/mL? n

Problem: For the compound `C=C[C@]1(C)C[C@@H](OC(=O)CSc2ccccc2NC(=O)Cn2cc(CN3CCN(c4cccc([N+](=O)[O-])c4)CC3)nn2)[C@]2(C)[C@H](C)CC[C@]3(CCC(=O)[C@H]32)[C@@H](C)[C@@H]1O` , is MBC under 0.5 µg/mL? y

Problem: For the compound `C=C[C@]1(C)C[C@@H](OC(=O)CSc2ccccc2NC(=O)Cn2cc(CN3CCN(c4ccccc4Cl)CC3)nn2)[C@]2(C)[C@H](C)CC[C@]3(CCC(=O)[C@H]32)[C@@H](C)[C@@H]1O` , is MBC under 0.5 µg/mL? n

---

Tested on: Staphylococcus aureus
Assay explanation: Bactericidal activity against Staphylococcus aureus ATCC 29213 preincubated 16 to 20 hrs followed by subculturing and measured after over night
Format: functional
Measurement name: MBC
Report as: number unit

Illustrative cases are given below, each with its answer.
Structure notation	MBC
C=C[C@]1(C)C[C@@H](OC(=O)CSc2ccccc2NC(=O)Cn2cc(CN3CCN(c4cccc(Cl)c4)CC3)nn2)[C@]2(C)[C@H](C)CC[C@]3(CCC(=O)[C@H]32)[C@@H](C)[C@@H]1O	1 µg/mL
C=C[C@]1(C)C[C@@H](OC(=O)CSc2ccccc2NC(=O)Cn2cc(CN3CCN(c4ccc([N+](=O)[O-])cc4)CC3)nn2)[C@]2(C)[C@H](C)CC[C@]3(CCC(=O)[C@H]32)[C@@H](C)[C@@H]1O	0.125 µg/mL
C=C[C@]1(C)C[C@@H](OC(=O)CSc2ccccc2NC(=O)Cn2cc(CN3CCN(c4ccc(O)cc4)CC3)nn2)[C@]2(C)[C@H](C)CC[C@]3(CCC(=O)[C@H]32)[C@@H](C)[C@@H]1O	4 µg/mL
C=C[C@]1(C)C[C@@H](OC(=O)CSc2ccccc2NC(=O)Cn2cc(CN3CCCC3)nn2)[C@]2(C)[C@H](C)CC[C@]3(CCC(=O)[C@H]32)[C@@H](C)[C@@H]1O	4 µg/mL

Now for the compound whose MBC we want.
Any idea what MBC was measured for `C=C[C@]1(C)C[C@@H](OC(=O)CSc2ccccc2NC(=O)Cn2cc(CN3CCOCC3)nn2)[C@]2(C)[C@H](C)CC[C@]3(CCC(=O)[C@H]32)[C@@H](C)[C@@H]1O` ? 0.5 µg/mL

---

System: Escherichia coli
Assay explanation: Bactericidal activity against Escherichia coli ATCC 25922 preincubated 16 to 20 hrs followed by subculturing and measured after over night
Type: functional
Measurement name: MBC

Illustrative cases are given below, each with its answer.
Structure notation	Result
C=C[C@]1(C)C[C@@H](OC(=O)CSc2ccccc2NC(=O)Cn2cc(CN3CCC(O)CC3)nn2)[C@]2(C)[C@H](C)CC[C@]3(CCC(=O)[C@H]32)[C@@H](C)[C@@H]1O	> 32 µg/mL
C=C[C@]1(C)C[C@@H](OC(=O)CSc2ccccc2NC(=O)Cn2cc(CN3CCN(c4ccccc4F)CC3)nn2)[C@]2(C)[C@H](C)CC[C@]3(CCC(=O)[C@H]32)[C@@H](C)[C@@H]1O	> 32 µg/mL

Now for the compound whose MBC we want.
Any idea what MBC was measured for `C=C[C@]1(C)C[C@@H](OC(=O)CSc2ccccc2NC(=O)Cn2cc(CN3CCN(c4ccccc4[N+](=O)[O-])CC3)nn2)[C@]2(C)[C@H](C)CC[C@]3(CCC(=O)[C@H]32)[C@@H](C)[C@@H]1O` ? > 32 µg/mL

---

Test system: Staphylococcus aureus
Assay explanation: Bactericidal activity against Staphylococcus aureus ATCC 29213 preincubated 16 to 20 hrs followed by subculturing and measured after over night
Assay type: functional
Measurement name: MBC (µg/mL)
# output: bare number, implied unit µg/mL

Illustrative cases are given below, each with its answer.
Structure notation	Readout number
C=C[C@]1(C)C[C@@H](OC(=O)CSc2ccccc2NC(=O)Cn2cc(CN3CCC(O)CC3)nn2)[C@]2(C)[C@H](C)CC[C@]3(CCC(=O)[C@H]32)[C@@H](C)[C@@H]1O	1
C=C[C@]1(C)C[C@@H](OC(=O)CSc2ccccc2NC(=O)Cn2cc(CN3CCN(c4ccc(OC)cc4)CC3)nn2)[C@]2(C)[C@H](C)CC[C@]3(CCC(=O)[C@H]32)[C@@H](C)[C@@H]1O	0.5

Any idea what MBC was measured for `C=C[C@]1(C)C[C@@H](OC(=O)CSc2ccccc2NC(=O)Cn2cc(CN3CCN(c4ccc(F)cc4)CC3)nn2)[C@]2(C)[C@H](C)CC[C@]3(CCC(=O)[C@H]32)[C@@H](C)[C@@H]1O` ? 0.5

Any idea what MBC was measured for `C=C[C@]1(C)C[C@@H](OC(=O)CSc2ccccc2NC(=O)Cn2cc(CN3CCN(c4cccc(C)c4)CC3)nn2)[C@]2(C)[C@H](C)CC[C@]3(CCC(=O)[C@H]32)[C@@H](C)[C@@H]1O` ? 2

Any idea what MBC was measured for `C=C[C@]1(C)C[C@@H](OC(=O)CSc2ccccc2NC(=O)Cn2cc(CN3CCC(CCO)CC3)nn2)[C@]2(C)[C@H](C)CC[C@]3(CCC(=O)[C@H]32)[C@@H](C)[C@@H]1O` ? 0.5

---

Assay explanation: Ratio of MBC for bactericidal activity against methicillin-resistant Staphylococcus aureus ATCC 43300 to MIC for antibacterial activity against methicillin-resistant Staphylococcus aureus ATCC 4330
Type: functional
Measurement name: Ratio
Lab note: jot the number down without any unit.

Compound	Measurement name	Readout number
C=C[C@]1(C)C[C@@H](OC(=O)CSc2ccccc2NC(=O)Cn2cc(CN3CCN(c4ccc(OC)cc4)CC3)nn2)[C@]2(C)[C@H](C)CC[C@]3(CCC(=O)[C@H]32)[C@@H](C)[C@@H]1O	Ratio	1

Any idea what Ratio was measured for `C=C[C@]1(C)C[C@@H](OC(=O)CSc2ccccc2NC(=O)Cn2cc(CN3CCN(c4ccc([N+](=O)[O-])cc4)CC3)nn2)[C@]2(C)[C@H](C)CC[C@]3(CCC(=O)[C@H]32)[C@@H](C)[C@@H]1O` ? 1

Any idea what Ratio was measured for `C=C[C@]1(C)C[C@@H](OC(=O)CSc2ccccc2NC(=O)Cn2cc(CN3CCN(c4cccc([N+](=O)[O-])c4)CC3)nn2)[C@]2(C)[C@H](C)CC[C@]3(CCC(=O)[C@H]32)[C@@H](C)[C@@H]1O` ? 1
